# Tested on: SK-MEL-5
# method: cells
# experimental_setup: Homo sapiens, SK-MEL-5, read-out: G150
pIC50: −log10 of the molar value.
parameter_measured: pIC50

stdin: Quick check: pIC50 on SK-MEL-5, item COc1cc(Nc2ncc(F)c(Nc3ccc4c(n3)NC(=O)C(C)(C)O4)n2)cc(OC)c1OC ?
stdout: < 4.00

----------
# Test system: 786-0
# method: cells
# experimental_setup: Homo sapiens, 786-0, read-out: G150
parameter_measured: IC50 (nM)
Express it in nM; write the number only.

stdin: Form field: reported IC50 of COc1cc(Nc2ncc(F)c(Nc3ccc4c(n3)NC(=O)C(C)(C)O4)n2)cc(OC)c1OC
stdout: 873
